// cross-source set; read-out = pKi; system = UniProt P34972
Answer as the number alone; pKi is minus log10 of concentration in mol/L.

Specify measured pKi for O=S1(=O)CCN(c2cnc(-c3ccc(C(F)(F)F)cc3)c(-c3ccncc3Cl)n2)CC1 .
5.72

Given CCN(Cc1ccccc1)C(=O)c1oc2ccc(S(=O)(=O)N3CC(C)CC(C)C3)cc2c1C (centres undefined) , respond with its pKi.
5.51

Please indicate pKi recorded for CCOC(=O)N1CCC[C@H](NC(=O)c2nn(-c3ccc(Cl)cc3Cl)c(-c3ccc(Cl)cc3)c2C)C1
5.27

Check the records and state pKi for CCOc1ccc(Cc2nc3cc(C(=O)N(C)CC)ccc3n2CCC(C)C)cc1
8.48

Note down pKi recorded for CC(C)(C)OC(=O)NC1CCN(c2ncnc3c2nc(-c2ccccc2Cl)n3-c2ccc(Cl)cc2)CC1
5.77

====

# merged literature set: Ki with Cannabinoid receptor 2 (Homo sapiens, UniProt P34972)
# Sequence (P34972 whole entry): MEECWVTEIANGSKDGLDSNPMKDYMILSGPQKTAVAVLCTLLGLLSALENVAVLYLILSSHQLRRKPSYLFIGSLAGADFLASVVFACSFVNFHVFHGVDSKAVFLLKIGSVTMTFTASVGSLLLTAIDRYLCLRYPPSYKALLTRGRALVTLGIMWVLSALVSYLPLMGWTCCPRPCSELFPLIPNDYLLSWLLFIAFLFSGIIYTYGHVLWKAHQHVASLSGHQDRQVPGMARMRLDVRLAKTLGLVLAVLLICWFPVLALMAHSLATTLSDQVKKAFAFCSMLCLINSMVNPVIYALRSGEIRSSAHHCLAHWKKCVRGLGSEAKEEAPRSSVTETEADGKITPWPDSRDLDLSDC

# lookup: Cannabinoid receptor 2 (Homo sapiens, UniProt P34972) Ki, key = O=c1c2nn(-c3ccc(Cl)cc3)c(-c3ccccc3Cl)c2ncn1CC(F)(F)F
> 10 µM

Fetch value of Ki on Cannabinoid receptor 2 (Homo sapiens, UniProt P34972) for CC(F)(F)CN1CCc2c(nn(-c3ccccc3Cl)c2-c2ccc(Cl)cc2)C1=O .
> 10 µM

Give Ki; test system Cannabinoid receptor 2 (Homo sapiens, UniProt P34972); molecule COc1cc(C(=O)NC2(C(=O)N[C@H](C)c3ccc(-n4nc(OC)c5ccccc54)cc3F)CC2)on1
> 10 µM

====

Record: compiled Ki on Cannabinoid receptor 2 (Homo sapiens) from multiple reports.

Report value: Ki, system: Cannabinoid receptor 2 (Homo sapiens), compound: CCc1c(C(=O)NCCc2ccccc2)cc(C)n1-c1ccccc1
718 nM

Give the observed Ki of COc1cc(C(=O)NC2(C(=O)N[C@H](C)c3ccc(-n4nc(Br)c5ccccc54)cc3F)CC2)on1 for Cannabinoid receptor 2 (Homo sapiens).
> 10000 nM

Give measured Ki for CS(=O)(=O)Nc1ccc(-c2cc(C(=O)N[C@@H]3CCCC[C@H]3O)cnc2OCC2CC2)cc1 (Cannabinoid receptor 2 (Homo sapiens)).
> 10000 nM

Would you please give the reported Ki of Cc1c(C(=O)N2CCC(NC(=O)NC3CCCCC3)(c3ccccc3)CC2)nn(-c2ccc(Cl)cc2Cl)c1-c1ccc(Cl)cc1 with Cannabinoid receptor 2 (Homo sapiens)?
20000 nM

GET Ki | system: Cannabinoid receptor 2 (Homo sapiens) | item: CCOC(=O)C(CC)(CC)NC(=O)c1ccc(N2CC(OC)C2)c(OC[C@H]2C[C@@H]2COCCF)n1 (mixture of isomers)
3.7 nM

Using Cannabinoid receptor 2 (Homo sapiens) as the test system, report measured Ki of Cc1c(C(=O)NCC2CCC(CNS(N)(=O)=O)CC2)nn(-c2ccc(Cl)cc2Cl)c1-c1ccc(Cl)cc1 (mixture of isomers) .
2310 nM

Write down the reported Ki (system: Cannabinoid receptor 2 (Homo sapiens)) of CC(=O)N1CCN(C[C@@H]2CC[C@@H](c3ccc(Cl)cc3Cl)N(c3ccc(Cl)cc3)C2)CC1
> 1850 nM

Report value only: Ki, Cannabinoid receptor 2 (Homo sapiens), Cc1c(C(=O)N[C@@H]2CCCN(C(=O)NC(C)C)C2)nn(-c2ccc(Cl)cc2Cl)c1-c1ccc(Cl)cc1
4130 nM

Fill: Ki (Cannabinoid receptor 2 (Homo sapiens)) for this compound CCc1nn(-c2ccc([C@@H](C)NC(=O)C3(NC(=O)c4cc(OC)no4)CC3)c(F)c2)c2ccccc12
> 10000 nM

Report value only: Ki, Cannabinoid receptor 2 (Homo sapiens), CNC(=NS(=O)(=O)N1CCCCC1)N1CCC(c2ccccc2)C(c2ccc(Cl)cc2)=N1 (stereo not drawn)
571 nM

Recall the reported Ki of CCNC1(C(N)=O)CN(c2cnc(-c3ccc(C(F)(F)F)cc3)c(-c3ccnc(Cl)c3)n2)C1 when tested on Cannabinoid receptor 2 (Homo sapiens).
> 50000 nM

State the measured Ki (Cannabinoid receptor 2 (Homo sapiens)) of O=C(Cc1ccc(Cl)cc1)NC(NC(=O)Cc1ccc(Cl)cc1)c1ccc([N+](=O)[O-])cc1
> 20000 nM

Would you please give the reported Ki of Cc1cc(C(=O)Nc2ccc3ccccc3c2)c(C)n1-c1ccccc1 with Cannabinoid receptor 2 (Homo sapiens)?
58.3 nM

====

Published pKi for Cannabinoid receptor 2 (Homo sapiens), assembled from different documents, is shown next.
pKi: −log10 of the molar value.

Fill: pKi (Cannabinoid receptor 2 (Homo sapiens)) for this molecule Cc1cc(COc2ncc(C(=O)N[C@@H]3CCCC[C@H]3O)cc2-c2ccc(Cl)cc2)on1
< 5.00

Report pKi from Cannabinoid receptor 2 (Homo sapiens) testing of Fc1ccc(C[C@H]2CC[C@H](c3ccc(Cl)cc3)N(c3ccc(Cl)cc3)C2)cc1F (relative stereo)
< 5.75

Print Cannabinoid receptor 2 (Homo sapiens) pKi for CCc1nc2c(-c3ccc(Cl)cc3)n(-c3ccccc3Cl)nc2c(=O)n1CC(F)(F)F .
< 5.00

Give Cannabinoid receptor 2 (Homo sapiens) pKi for the following molecule: NC(=NS(=O)(=O)c1ccc(Cl)cc1)N1CC(c2ccccc2)C(c2ccc(Cl)cc2)=N1 (configuration not stated)
< 6.00

With Cannabinoid receptor 2 (Homo sapiens) as the test system, provide measured pKi for this molecule: CN(CC1CC1)c1ncc(C(=O)N[C@@H]2CCCC[C@H]2O)cc1-c1ccc(Cl)cc1
< 5.00

Name the value of pKi reported for N#Cc1ccc(C(=O)NCC[C@@H]2CC[C@@H](c3ccc(Cl)cc3Cl)N(c3ccc(Cl)cc3)C2)cc1 when tested on Cannabinoid receptor 2 (Homo sapiens).
< 5.61

Send back Cannabinoid receptor 2 (Homo sapiens) pKi of N=C(NS(=O)(=O)c1ccc(F)cc1)N1CC(c2ccccc2)C(c2ccc(Cl)cc2)=N1 (configuration not stated) only.
< 6.00

Provide pKi, recorded with Cannabinoid receptor 2 (Homo sapiens), of O=S(=O)(NC[C@@H]1CC[C@@H](c2ccc(Cl)cc2Cl)N(c2ccc(Cl)cc2)C1)c1cccnc1
< 5.73

Retrieve pKi on Cannabinoid receptor 2 (Homo sapiens); query CC(C)N1CCc2c(nn(-c3ccccc3Cl)c2-c2ccc(Cl)cc2)C1=O
< 5.00

Give the observed pKi of O=C(c1ccc(OCCN2CCCCC2)cc1)c1c(-c2ccc(O)cc2)sc2cc(O)ccc12 for Cannabinoid receptor 2 (Homo sapiens).
~6.62

Find the measured pKi of COc1cc(C(=O)NC2(C(=O)N[C@H](C)c3ccc(-n4nc(Cl)c5ccccc54)cc3F)CC2)on1 with Cannabinoid receptor 2 (Homo sapiens) as test system.
< 5.00

// fetch pKi; item: O=S(=O)(NC[C@@H]1CC[C@@H](c2ccc(Cl)cc2Cl)N(c2ccc(Cl)cc2)C1)C1CC1 ; system: Cannabinoid receptor 2 (Homo sapiens)
< 5.73

For Cannabinoid receptor 2 (Homo sapiens), give pKi of the listed molecule: C/N=C(\NS(=O)(=O)c1ccc(F)cc1)N1CC(c2ccccc2)C(c2ccc(Cl)cc2)=N1 (configuration not stated)
< 6.00

Please tell me the measured pKi for CCC(C)/C=C(C)/C=C/C=C/C=C/C(=O)c1c(O)c(-c2ccc(O)cc2)c[nH]c1=O (configuration not stated) ; system: Cannabinoid receptor 2 (Homo sapiens).
< 6.00

Quote pKi with test system Cannabinoid receptor 2 (Homo sapiens) for CS/C(=N\S(=O)(=O)c1ccc(C(F)(F)F)cc1)N1CC(c2ccccc2)C(c2ccc(Cl)cc2)=N1 (configuration not stated)
< 6.00

Report the value of pKi obtained on Cannabinoid receptor 2 (Homo sapiens) for O=c1c2nn(-c3ccccc3Cl)c(-c3ccc(Cl)cc3)c2ncn1CCC(F)(F)F .
< 5.00

GET pKi where system = Cannabinoid receptor 2 (Homo sapiens) and item = O=C(Cc1ccc(Cl)cc1)Nc1cccc(-c2cccc(N3CCCC3)c2)c1
< 4.00

====

pKi: −log10 of the molar value.
Field: pKi. System: Cannabinoid receptor 2 (Homo sapiens). Provenance: assorted publications.

Specify pKi for CC(C)(C)CCN1CCN(C[C@@H]2CC[C@@H](c3ccc(Cl)cc3Cl)N(c3ccc(Cl)cc3)C2)CC1 , system Cannabinoid receptor 2 (Homo sapiens).
< 5.82

Look up and report measured pKi (Cannabinoid receptor 2 (Homo sapiens)) for the following compound: O=C(N[C@@H]1CCCC[C@H]1O)c1cnc(OCc2ccccc2)c(-c2ccc(Cl)cc2)c1
< 5.00

Please report the measured pKi for CCn1cnc2c(-c3ccc(Cl)cc3)n(-c3ccccc3Cl)nc2c1=O tested on Cannabinoid receptor 2 (Homo sapiens).
< 5.00

Lab note: record pKi of Cc1c(C(=O)NCCNCCN)nn(-c2ccc(Cl)cc2Cl)c1-c1ccc(Cl)cc1 tested on Cannabinoid receptor 2 (Homo sapiens).
< 5.60

State the measured pKi (Cannabinoid receptor 2 (Homo sapiens)) of COc1ccc2c(c1)OC(C)(C)c1cnn(CNC(=O)CN3CCN(c4ccccc4OC)CC3)c1-2
< 4.40

Enter recorded pKi with Cannabinoid receptor 2 (Homo sapiens) for O=C(N[C@@H]1CCCC[C@H]1O)c1cnc(Oc2ccccc2)c(-c2ccc(Cl)cc2)c1 here.
< 5.00

Lab note: record pKi of Fc1ccc(C[C@@H]2CC[C@H](c3ccc(Cl)cc3)N(c3ccc(Cl)cc3)C2)cc1F (relative stereo) tested on Cannabinoid receptor 2 (Homo sapiens).
< 5.73

Report its pKi with Cannabinoid receptor 2 (Homo sapiens) as the test system: O=C(Cc1ccc(Cl)cc1)NC(NC(=O)Cc1ccc(Cl)cc1)c1ccc(F)cc1
< 4.70

Specify pKi for CC(C)(C)OC(=O)N1CCN(C[C@@H]2CC[C@@H](c3ccc(Cl)cc3Cl)N(c3ccc(Cl)cc3)C2)CC1 , system Cannabinoid receptor 2 (Homo sapiens).
< 5.73

GET pKi where system = Cannabinoid receptor 2 (Homo sapiens) and item = CS(=O)(=O)N1CCN(C[C@@H]2CC[C@@H](c3ccc(Cl)cc3Cl)N(c3ccc(Cl)cc3)C2)CC1
< 5.73

Recall the reported pKi of O=C(Nc1ccc(Cl)cc1)Nc1cccc(Nc2cccc(N3CCCC3)c2)c1 on Cannabinoid receptor 2 (Homo sapiens) and write it down.
< 4.00

Would you please give the reported pKi of COc1cc(C(=O)NC2(C(=O)N[C@H](C)c3ccc(-n4nc(C)c5ccccc54)cc3F)CC2)on1 with Cannabinoid receptor 2 (Homo sapiens)?
< 5.00
